The reported measurements were obtained from PubChem BioAssay AID1745844.

System: rodent lifetime carcinogenesis bioassay, tumor incidence TD50
Test: carcinogenic potency in animals, long-term in vivo studies, CPDB compilation (AID 1745844)
Details: mouse; strain B6C3F1; females; in drinking water; site: any site (literature study); lesion: several types; types named in the paper; dosed 103 weeks; study length 104 weeks
experimental.readout: TD50
The answer should read as a number with its unit following.

TD50 for Nc1ccc(Cc2ccc(N)cc2)cc1 ? 52.1 mg/kg/day

----------
Tested on: rodent lifetime carcinogenesis bioassay, tumor incidence TD50
Assay: carcinogenic potency in animals, long-term in vivo studies, CPDB compilation (AID 1745844)
Conditions: rat; strain Fischer 344; males; in feed; site: testis; lesion: interstitial-cell tumor; dosed 103 weeks; study length 104 weeks
experimental.readout: TD50 (mg/kg/day)
Note: unit mg/kg/day is implicit; provide only the numeric part.

> print(dat)
                     compound.structure  measurement.units  measured.value
1  Nc1ccc(N)c2c1C(=O)c1c(N)ccc(N)c1C2=O          mg/kg/day             100

Next:
TD50 for N=C1C=CC(=C(c2ccc(N)cc2)c2ccc(N)cc2)C=C1 ? 15.6

----------
Test system: rodent lifetime carcinogenesis bioassay, tumor incidence TD50
Experiment: carcinogenic potency in animals, long-term in vivo studies, CPDB compilation (AID 1745844)
Details: rat; strain Fischer 344; males; in drinking water; site: Zymbal's gland; lesion: carcinoma + carcinoma, bilateral; dosed 58 weeks; study length 60 weeks
experimental.readout: TD50 (mg/kg/day)
Note: unit mg/kg/day is implicit; provide only the numeric part.

TD50 for Cc1cc(-c2ccc(N)c(C)c2)ccc1N ? 1.93

----------
Tested on: rodent lifetime carcinogenesis bioassay, tumor incidence TD50
Assay: carcinogenic potency in animals, long-term in vivo studies, CPDB compilation (AID 1745844)
Details: mouse; strain CF-1; females; in feed; site: lung; lesion: carcinoma; dosed 78 weeks; study length 78 weeks
Activity calls are given as the source filed them. The rule behind the calls is not given here.
experimental.readout: TD50

TD50 for C=CCOc1ccccc1OCC(O)CNC(C)C (stereo unspecified) ? 425 mg/kg/day (inactive)

----------
System: rodent lifetime carcinogenesis bioassay, tumor incidence TD50
Test: carcinogenic potency in animals, long-term in vivo studies, CPDB compilation (AID 1745844)
Conditions: monkey; strain Rhesus [Macaca mulatta]; both sexes; in feed; site: any site (literature study); lesion: several types; types named in the paper; dosed 258 weeks; study length 1281 weeks
experimental.readout: TD50 (mg/kg/day)
Note: unit mg/kg/day is implicit; provide only the numeric part.

TD50 for CCOC(N)=O ? 26.3

----------
Test system: rodent lifetime carcinogenesis bioassay, tumor incidence TD50
Assay: carcinogenic potency in animals, long-term in vivo studies, CPDB compilation (AID 1745844)
Settings: rat; strain Fischer 344; males; by gavage; site: urinary bladder; lesion: transitional-cell carcinoma; dosed 30 weeks; study length 102 weeks
experimental.readout: TD50

TD50 for CCCCCCCCCCN(C)N=O ? 1.26 mg/kg/day

----------
System: rodent lifetime carcinogenesis bioassay, tumor incidence TD50
Assay: carcinogenic potency in animals, long-term in vivo studies, CPDB compilation (AID 1745844)
Conditions: rat; strain F344/DuCrj; males; in feed; site: liver; lesion: hepatocellular carcinoma; dosed 104 weeks; study length 110 weeks
Active and inactive are the calls of the source. The rule behind the calls is not given here.
experimental.readout: TD50

TD50 for CCCCOCCOCCOCc1cc2c(cc1CCC)OCO2 ? 20100 mg/kg/day (inactive)

----------
System: rodent lifetime carcinogenesis bioassay, tumor incidence TD50
Test: carcinogenic potency in animals, long-term in vivo studies, CPDB compilation (AID 1745844)
Details: mouse; strain ICR; males; in feed; site: liver; lesion: hyperplastic nodule; dosed 40 weeks; study length 88 weeks
experimental.readout: TD50 (mg/kg/day)
Note: unit mg/kg/day is implicit; provide only the numeric part.

TD50 for CC(N)=S ? 12

----------
Tested on: rodent lifetime carcinogenesis bioassay, tumor incidence TD50
Experiment: carcinogenic potency in animals, long-term in vivo studies, CPDB compilation (AID 1745844)
Conditions: rat; strain Charles River CD (Sprague-Dawley); females; in feed; site: liver; lesion: nodular hyperplasia; dosed 113 weeks; study length 113 weeks
Calls of active or inactive are those of the source. No rule for the calls is given here.
experimental.readout: TD50

TD50 for O=C1NS(=O)(=O)c2ccccc21 ? 98400 mg/kg/day (inactive)

----------
Tested on: rodent lifetime carcinogenesis bioassay, tumor incidence TD50
Assay: carcinogenic potency in animals, long-term in vivo studies, CPDB compilation (AID 1745844)
Conditions: rat; strain Wistar albino; females; in feed; site: mammary gland; lesion: fibroadenoma; dosed 104 weeks; study length 104 weeks
experimental.readout: TD50
The answer should read as a number with its unit following.

TD50 for CC(C)(C)NC[C@H](O)COc1cccc2c1CCCC2=O ? 71 mg/kg/day

----------
Tested on: rodent lifetime carcinogenesis bioassay, tumor incidence TD50
Experiment: carcinogenic potency in animals, long-term in vivo studies, CPDB compilation (AID 1745844)
Settings: rat; strain Sprague-Dawley albino; both sexes; in feed; site: mammary gland; lesion: fibroepithelial tumor; dosed 104 weeks; study length 104 weeks
experimental.readout: TD50

Recorded TD50 for C#C[C@]1(OC(C)=O)CC[C@H]2[C@@H]3CCC4=CC(=O)CC[C@@H]4[C@H]3CC[C@@]21C (tested in a mixture with another compound) with rodent lifetime carcinogenesis bioassay, tumor incidence TD50, please? 21 mg/kg/day

----------
Tested on: rodent lifetime carcinogenesis bioassay, tumor incidence TD50
Assay: carcinogenic potency in animals, long-term in vivo studies, CPDB compilation (AID 1745844)
Conditions: rat; strain Fischer 344; males; by gavage; site: lung; lesion: alveolar/bronchiolar tumor; dosed 35 weeks; study length 120 weeks
experimental.readout: TD50 (mg/kg/day)
Note: unit mg/kg/day is implicit; provide only the numeric part.

TD50 for CC(O)CN(N=O)C(=O)NCCCl (stereo unspecified) ? 2.39

----------
System: rodent lifetime carcinogenesis bioassay, tumor incidence TD50
Assay: carcinogenic potency in animals, long-term in vivo studies, CPDB compilation (AID 1745844)
Conditions: mouse; strain B6C3F1; males; by gavage; site: subcutaneous tissue; lesion: fibrosarcoma + fibroma + neurofibrosarcoma + sarcoma, NOS; dosed 103 weeks; study length 104 weeks
experimental.readout: TD50 (mg/kg/day)
Note: unit mg/kg/day is implicit; provide only the numeric part.

TD50 for CN(C)CCC(c1ccc(Cl)cc1)c1ccccn1 (stereo unspecified) ? 94.7

----------
Tested on: rodent lifetime carcinogenesis bioassay, tumor incidence TD50
Test: carcinogenic potency in animals, long-term in vivo studies, CPDB compilation (AID 1745844)
Settings: rat; strain Fischer 344; males; by gavage; site: tongue; lesion: squamous-cell papilloma; dosed 94 weeks; study length 104 weeks
experimental.readout: TD50

TD50 for ClCC(Cl)CCl ? 10.2 mg/kg/day

----------
Test system: rodent lifetime carcinogenesis bioassay, tumor incidence TD50
Experiment: carcinogenic potency in animals, long-term in vivo studies, CPDB compilation (AID 1745844)
Conditions: rat; strain F344/DuCrj; females; in feed; site: forestomach; lesion: papilloma; dosed 104 weeks; study length 104 weeks
experimental.readout: TD50 (mg/kg/day)
Note: unit mg/kg/day is implicit; provide only the numeric part.

> print(dat)
        compound.structure  measured.value
1  O=C(O)C=Cc1ccc(O)c(O)c1             426

Next:
TD50 for Oc1ccc2c(c1)OCO2 ? 1090

----------
Tested on: rodent lifetime carcinogenesis bioassay, tumor incidence TD50
Experiment: carcinogenic potency in animals, long-term in vivo studies, CPDB compilation (AID 1745844)
Details: rat; strain Charles River CD (Sprague-Dawley); males; in feed; site: pituitary gland; lesion: chromophobe adenoma; dosed 66 weeks; study length 66 weeks
experimental.readout: TD50

TD50 for CC/C(=C(/CC)c1ccc(O)cc1)c1ccc(O)cc1 ? 0.114 mg/kg/day

----------
Test system: rodent lifetime carcinogenesis bioassay, tumor incidence TD50
Assay: carcinogenic potency in animals, long-term in vivo studies, CPDB compilation (AID 1745844)
Conditions: rat; strain Fischer 344; males; by gavage; site: preputial gland; lesion: carcinoma; dosed 94 weeks; study length 104 weeks
experimental.readout: TD50

TD50 for ClCC(Cl)CCl ? 28 mg/kg/day

----------
Tested on: rodent lifetime carcinogenesis bioassay, tumor incidence TD50
Assay: carcinogenic potency in animals, long-term in vivo studies, CPDB compilation (AID 1745844)
Conditions: rat; strain Sprague-Dawley; females; inhaled; site: several sites; sites named in the paper; lesion: angiosarcoma; dosed 81 weeks; study length 103 weeks
experimental.readout: TD50

Recorded TD50 for C=CBr with rodent lifetime carcinogenesis bioassay, tumor incidence TD50, please? 19.2 mg/kg/day

----------
Test system: rodent lifetime carcinogenesis bioassay, tumor incidence TD50
Experiment: carcinogenic potency in animals, long-term in vivo studies, CPDB compilation (AID 1745844)
Conditions: rat; strain Fischer 344; males; by gavage; site: tunica vaginalis; lesion: mesothelioma, NOS; dosed 102 weeks; study length 104 weeks
experimental.readout: TD50 (mg/kg/day)
Note: unit mg/kg/day is implicit; provide only the numeric part.

TD50 for ClC(Cl)Br ? 350
